meta.source: patent US10828578B2

assay: physchem; details: water, 20 °C, thermodynamic from solid
readoutLabel: solubility thermodynamic at 24 h

* O=[N+]([O-])c1ccc(O)cc1 [4-nitrophenol] | 13 mg/mL

###

test: physchem; details: water, thermodynamic from solid
readoutLabel: solubility (µg/mL)

- CC(C)Cc1ccc(C(C)C(=O)O)cc1 (stereo not shown) [ibuprofen]: 9
